Catalogue of inhibition at 25 µM readings, one per entry.
molecular target: GAβ-dependent amyloid fibril formation (Human Aβ1-40 + GM1-containing liposome) (Homo sapiens, UniProt P05067); construct: Human Aβ1-40 (cat. #4307-v, prepared by Peptide Institute); purchased Peptide Institute 4307-v; assay: Thioflavin T (ThT) assay of GAβ-dependent amyloid fibril formation (Aβ1-40 with GM1-containing liposome); assay type: biochemical; conditions: inhibition rate against amyloid fibril formation, final concentration of the compound 25 μM; read-out: Inhibitory activity ABC evaluation
Sequence (P05067 672-711 limits assumed): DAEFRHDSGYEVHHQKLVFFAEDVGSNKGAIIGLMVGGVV

Worked cases, inhibition at 25 µM given:
>  <compound>
C[C@@H](O)[C@H](NC(=O)c1ccc(Cl)cc1)c1nc(-c2ccc(OC(F)(F)F)cc2)no1

>  <inhibition at 25 µM>
> 80%

$$$$
>  <compound>
O=C(NC(CO)c1nc(-c2ccc(C(F)(F)F)cc2)no1)c1n[nH]c2ccccc12 (stereo not drawn)

>  <inhibition at 25 µM>
40 to 80%

$$$$
>  <compound>
O=C(c1ccc(Cl)cn1)N1C[C@H](O)C[C@H]1c1nc(-c2ccc(OC(F)(F)F)cc2)no1

>  <inhibition at 25 µM>
< 40%

$$$$

Entry O=C(NCC(CO)c1nc(-c2ccc(C(F)(F)F)cc2)no1)c1ccc(F)cc1 (stereo not drawn) ; inhibition at 25 µM = 40 to 80%

Input NC[C@H](NC(=O)c1ccccc1)c1nc(-c2ccc(OC(F)(F)F)cc2)no1 . Output inhibition at 25 µM: < 40%

Entry OC(Cc1c[nH]c2ccccc12)c1nc(-c2ccc(OC(F)(F)F)cc2)no1 (stereo not drawn) — recorded inhibition at 25 µM = > 80%

CCCN(C(=O)CCc1nc(-c2ccc(O)cc2)no1)c1cccc(Cl)c1 yielded inhibition at 25 µM of 40 to 80%

// field: inhibition at 25 µM; key: CCCN(C(=O)CCc1nc(-c2ccc(OC)cc2)no1)c1cncc(Cl)c1 ; value = 40 to 80%
